Origin of the recorded values: patent US11548875B2

- Target Under Test: ALDH1A2 (Homo sapiens, UniProt O94788)
- Sequence (O94788 whole entry): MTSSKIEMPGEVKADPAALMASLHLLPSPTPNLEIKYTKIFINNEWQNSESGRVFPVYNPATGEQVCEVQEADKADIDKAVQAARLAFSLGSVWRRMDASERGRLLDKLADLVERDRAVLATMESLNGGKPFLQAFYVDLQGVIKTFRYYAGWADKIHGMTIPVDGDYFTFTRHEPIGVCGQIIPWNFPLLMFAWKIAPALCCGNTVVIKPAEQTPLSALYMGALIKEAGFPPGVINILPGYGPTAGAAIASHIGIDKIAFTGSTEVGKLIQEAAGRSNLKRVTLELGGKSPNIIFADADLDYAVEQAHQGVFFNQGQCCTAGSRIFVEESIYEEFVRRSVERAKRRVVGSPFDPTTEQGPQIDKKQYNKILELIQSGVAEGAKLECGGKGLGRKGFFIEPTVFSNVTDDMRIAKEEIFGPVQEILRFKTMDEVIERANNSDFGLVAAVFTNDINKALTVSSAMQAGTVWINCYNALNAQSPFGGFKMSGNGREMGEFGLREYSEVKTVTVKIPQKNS
- Experiment Description: Cell-based enzyme assay, retinoic acid production in ALDH1A2/H1299 cells
Readout Kind: EC50 (µM)

{"columns": ["Chemical String", "Readout Kind", "Readout Value"],
 "data": [
  ["CCOc1ccsc1C(=O)N1CCN(c2ccc([N+](=O)[O-])c(N3CCCC3)c2)CC1", "EC50", 0.11]
]}

a = CC(=O)Nc1ccsc1C(=O)N1CCN(c2ccc([N+](=O)[O-])c(N3CCCC3)c2)CC1
b = COc1ccc(C(=O)N2CCN(c3ccc([N+](=O)[O-])c(N4CCCC4)c3)CC2)cc1
# input Of the two listed items, a and b , which carries the larger EC50 figure? Could you answer with the label of the item you picked?
# output b
